details: 298.15 K; 101 kPa; Liquid; Capillary tube (Ostwald / Ubbelohde) method

compound | viscosity (mPa·s)
C=C(C)C(=O)O [2-methyl-2-propenoic acid] | 1.267
CCCCO [butan-1-ol] | 2.566
C=C(C)C(=O)OCCO [2-hydroxyethyl 2-methyl-2-propenoate] | 5.784
C=C(C)C(=O)OCc1ccccc1 [benzyl methacrylate] | 2.302

* * *

Below, each of the compounds is paired with its reported viscosity value.
conditions: 308.15 K; 101 kPa; Liquid; Capillary tube (Ostwald / Ubbelohde) method
recorded.metric: viscosity (mPa·s)

compound | unit.string | value.reported
C=C(C)C(=O)O [2-methyl-2-propenoic acid] | mPa·s | 1.078
CCCCO [butan-1-ol] | mPa·s | 1.998
C=C(C)C(=O)OCCO [2-hydroxyethyl 2-methyl-2-propenoate] | mPa·s | 4.194
C=C(C)C(=O)OCc1ccccc1 [benzyl methacrylate] | mPa·s | 1.885

* * *

details: 318.15 K; 101 kPa; Liquid; Capillary tube (Ostwald / Ubbelohde) method
Consider the following molecules and their measured viscosity readings.
recorded.metric: viscosity (mPa·s)

molecule | recorded.metric | value.reported
C=C(C)C(=O)OCCO [2-hydroxyethyl 2-methyl-2-propenoate] | viscosity | 3.181
CCCCO | viscosity | 1.55
C=C(C)C(=O)O | viscosity | 0.945
C=C(C)C(=O)OCc1ccccc1 [benzyl methacrylate] | viscosity | 1.58

* * *

Quick reference: mass density of the listed items.
details: 308.15 K; 101 kPa; Liquid; Pycnometric method

molecule | mass density / kg/m3
C=C(C)C(=O)OCCO [2-hydroxyethyl 2-methyl-2-propenoate] | 1057.7
CCCCO | 798
C=C(C)C(=O)O | 999.4
C=C(C)C(=O)OCc1ccccc1 [benzyl methacrylate] | 1025.8
